system: LTB4 biosynthesis in human whole blood; assay: Human whole blood assay (hWB), inhibition of LTB4 biosynthesis; type: cell-based; conditions: Homo sapiens, read-out: hWB IC50
ENDPOINT: pIC50
In simple prose, pIC50 is minus the logarithm base ten of a concentration in moles per litre.

Query: Returns the measured pIC50 for the input compound. Input: `N[C@H](CO)Cn1ccc(-c2ccc(Oc3ccc(-c4ccn[nH]4)cn3)cc2)n1`
Reply: 7.22

====

Quick reference: pIC50 of the listed items.
system: LTB4 biosynthesis in human whole blood; assay: Human whole blood assay (hWB), inhibition of LTB4 biosynthesis; type: cell-based; conditions: human blood diluted 1:3, 4 hours with compound, 10 μg/ml A23187 for 15 min, eicosanoid by ELISA; read-out: hWB IC50
In simple prose, pIC50 is minus the logarithm base ten of a concentration in moles per litre.

The examples below pair each entry with its known result.
> print(dat)
                                   molecule  reading
1  N[C@H](CO)Cn1ccc(-c2ccc(Oc3ncc(-c4ccn[nH]4)cc3F)cn2)n1 [Example 21]     6.91
2  N[C@H](CO)Cc1nc(-c2cccc(Oc3ccc(Cl)cn3)c2)no1 [Example 02]     7.14
3  N[C@H](CO)Cn1nnc(-c2ccc(Oc3ccc(-c4ccn[nH]4)cn3)cc2)n1 [Example 20]     7.12
4  N[C@H](CO)Cn1ccc(-c2ccc(Oc3ncc(-c4cc[nH]n4)cc3F)cc2)n1 [Example 37]     7.33

Query: Returns the measured pIC50 for the input molecule. Input: N[C@@H](CO)Cn1nnc(-c2ccc(Oc3ccc(-c4ccn[nH]4)cn3)cc2)n1 [Example 19]
Reply: 7.19

Query: Returns the measured pIC50 for the input molecule. Input: N[C@H](CO)Cn1nnc(-c2ccc(Oc3ncc(-c4ccn[nH]4)cc3F)cn2)n1 [Example 22]
Reply: 7.05

Query: Returns the measured pIC50 for the input molecule. Input: N[C@H](CO)Cc1nc(-c2cccc(Oc3ccc(C(F)(F)F)cn3)c2)no1 [Example 10]
Reply: 6.85

Query: Returns the measured pIC50 for the input molecule. Input: N[C@H](CO)Cc1nc(-c2cccc([C@@H]3COc4ccccc4O3)c2)no1 [Example 15]
Reply: 7.10
